Attribution: patent US10912780B2

# System: Escherichia coli ATCC 25922
Mark each entry Met if its MIC sits below 0.1 µg/mL, and Not met for all others.

Compound	Cat
Cn1c(=O)ccc2ccc(F)c(CCNC[C@H]3CN(c4ccc5c(n4)NC(=O)CO5)C(=O)O3)c21	Met
CN1C(=O)CCc2ccc(F)c(CCNC[C@@H]3CN(c4ccc5c(n4)NC(=O)CO5)C(=O)O3)c21	Not met
Cn1c(=O)ccc2ccc(F)c(CCNCC[C@@H]3CN(c4cnc5c(n4)NC(=O)CO5)C(=O)O3)c21 (single isomer, unassigned)	Met
Cn1c(=O)ccc2ccc(F)c(C[C@@H](O)CNC[C@H]3CN(c4ccc5c(n4)NC(=O)CO5)C(=O)O3)c21 (single isomer, unassigned)	Not met
Cn1c(=O)cc(CN)c2ccc(F)c(CCNC[C@H]3CN(c4ccc5c(n4)NC(=O)CO5)C(=O)O3)c21	Not met
Cn1c(=O)ccc2ccc(F)c(C[C@H](O)CNC[C@H]3CN(c4ccc5c(n4)NC(=O)CO5)C(=O)O3)c21 (single isomer, unassigned)	Not met
Cn1c(=O)ccc2ccc(F)c(CCNCC[C@H]3CN(c4cnc5c(n4)NC(=O)CO5)C(=O)O3)c21 (single isomer, unassigned)	Met
